Assay info: acute toxicity test in mice by intravenous administration
Condition info: mouse, in vivo
LD50 values for the compounds below.

> print(dat)
                              line.notation            result
1  O=C(O)CC[C@H](NC(=O)[C@H]1CC[C@H](Oc2ccc(C(=O)c3ccccc3)c(Cl)c2Cl)C1)C(=O)O  200 to 400 mg/kg

Exercise: Quote LD50 reported for C[C@H](NC(=O)[C@H]1CC[C@H](Oc2ccc(C(=O)c3ccccc3)c(Cl)c2Cl)C1)C(=O)O please.
Solution: 200 to 400 mg/kg

This collection of values is drawn from patent US4829078A.
